ASSAY_SYSTEM: human ether-à-go-go-related gene (hERG) potassium channel (human, UniProt Q12809);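 further: peak tail current of the secondary pulse compared with the same well before compound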
Sequence (Q12809 whole entry, looked up): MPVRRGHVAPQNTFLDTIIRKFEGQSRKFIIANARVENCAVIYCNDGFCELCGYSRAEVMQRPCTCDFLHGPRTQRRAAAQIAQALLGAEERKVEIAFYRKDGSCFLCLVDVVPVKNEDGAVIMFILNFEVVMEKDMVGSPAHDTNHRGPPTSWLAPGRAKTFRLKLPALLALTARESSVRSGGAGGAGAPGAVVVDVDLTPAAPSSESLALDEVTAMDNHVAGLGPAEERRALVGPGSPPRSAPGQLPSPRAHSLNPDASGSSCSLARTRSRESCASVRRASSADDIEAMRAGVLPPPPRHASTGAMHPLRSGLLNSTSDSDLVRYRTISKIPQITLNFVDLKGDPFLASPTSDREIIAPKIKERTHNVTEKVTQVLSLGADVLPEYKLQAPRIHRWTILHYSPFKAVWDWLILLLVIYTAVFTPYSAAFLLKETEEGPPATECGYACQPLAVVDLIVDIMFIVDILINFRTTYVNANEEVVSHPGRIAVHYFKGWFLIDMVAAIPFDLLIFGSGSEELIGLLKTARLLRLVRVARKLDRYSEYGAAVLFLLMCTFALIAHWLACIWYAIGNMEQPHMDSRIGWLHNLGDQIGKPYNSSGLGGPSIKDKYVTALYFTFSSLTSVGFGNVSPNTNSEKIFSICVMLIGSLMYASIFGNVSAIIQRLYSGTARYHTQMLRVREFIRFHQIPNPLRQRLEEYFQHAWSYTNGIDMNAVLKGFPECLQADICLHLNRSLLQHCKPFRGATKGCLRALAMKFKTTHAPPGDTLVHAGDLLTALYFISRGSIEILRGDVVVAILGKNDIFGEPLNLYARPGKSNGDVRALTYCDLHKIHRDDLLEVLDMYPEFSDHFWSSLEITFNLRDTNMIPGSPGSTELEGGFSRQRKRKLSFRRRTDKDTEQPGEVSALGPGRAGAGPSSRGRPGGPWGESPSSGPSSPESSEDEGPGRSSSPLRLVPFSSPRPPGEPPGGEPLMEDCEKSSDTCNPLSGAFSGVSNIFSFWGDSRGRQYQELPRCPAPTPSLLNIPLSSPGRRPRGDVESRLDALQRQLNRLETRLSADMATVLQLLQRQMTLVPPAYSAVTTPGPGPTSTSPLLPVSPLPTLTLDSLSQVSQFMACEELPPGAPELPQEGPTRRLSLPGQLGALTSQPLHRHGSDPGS
TEST_DETAILS: primary screen, population patch clamp on CHO cells stably expressing hERG; higher = less effect of the substance
Out of some 310,000 compounds screened, about 14,000 (4.5%) showed an effect of 50% or more. The effect is printed as a negative number. What follows is part of a selection rich in strong results, with near analogues and random picks from the rest.
If the reported hERG current change (%, negative = inhibition) at 10uM equals or exceeds -20%, assign criterion met. If not, assign criterion not met.

Here are 6 compounds together with their reported answers.
C/C(CC(=O)Nc1ccc2c(c1)OCCO2)=N\NC(=O)c1ccc([N+](=O)[O-])cc1Cl :: criterion met
Cc1ccc(/C=N/NS(=O)(=O)c2ccc([N+](=O)[O-])cc2)o1 :: criterion met
O=C(Nc1ccc(S(=O)(=O)N2CCCC2)cc1)c1cccc(OC(F)F)c1 :: criterion not met
CCCn1c(Nc2cccc(OC)c2)nc2ccccc21 :: criterion met
CN1CCN(C(=O)/C(=C/c2ccccc2Cl)NC(=O)c2ccccc2)CC1 :: criterion met
COc1cc(CN2CCN(Cc3ccc([N+](=O)[O-])cc3)CC2)c([N+](=O)[O-])cc1OC.O=C(O)C(=O)O :: criterion not met

Q. Confirm if hERG current change (%, negative = inhibition) at 10uM reported for the compound CN1CCN(C(=O)/C(=C\c2cccc([N+](=O)[O-])c2)NC(=O)c2cccs2)CC1 is -20% or above.
A. criterion not met

Q. Now consider CC(C)C(=O)Nc1ccccc1C(=O)OCC(=O)c1ccc2c(c1)OCCO2 .
A. criterion met

Q. Now consider Cc1cccc(OC(C)C(=O)N(Cc2cccs2)C2CCS(=O)(=O)C2)c1C (stereo not shown) .
A. criterion met

Q. Now consider O=C(NC12CC3CC(CC(C3)C1)C2)c1cccc(OC(F)F)c1 .
A. criterion not met

Q. Now consider O=C(N/C(=C/c1cccc([N+](=O)[O-])c1)C(=O)N1CCCC1)c1ccccc1 .
A. criterion not met

Q. Now consider CCN(CC(=O)Nc1cccc(S(=O)(=O)N2CCOCC2)c1)Cc1ccccc1 .
A. criterion met

Q. Now consider N/C(=N\OC(=O)/C=C/c1ccccc1)c1ccccc1 .
A. criterion met

Q. Now consider CCN1CCN(Cc2cc(OC)c(OC)cc2[N+](=O)[O-])CC1 .
A. criterion met

Q. Now consider COc1cc(C(=O)NC(=S)NNC(=O)c2ccc3c(c2)OCO3)cc(OC)c1OC .
A. criterion met

Q. Now consider COc1cccc(C(=O)NC23CC4CC(CC(C4)C2)C3)c1 .
A. criterion met

Q. Now consider O=C(Nc1ccc(OC(F)F)c(Cl)c1)c1cccc(OC(F)F)c1 .
A. criterion not met

Q. Now consider C/C(=N\NC(=O)c1ccco1)c1ccc(NC(=O)c2cccs2)cc1 .
A. criterion met

Q. Now consider COCCCNC(=O)c1ccc(NS(C)(=O)=O)cc1 .
A. criterion met

Q. Now consider CC(=O)Nc1cccc(C(=O)Nc2ccc(S(=O)(=O)N3CCCCC3)cc2)c1 .
A. criterion met

Q. Now consider CCn1c(NCc2ccc(OC)cc2)nc2ccccc21 .
A. criterion not met
